- Tested on: 786-0
- experiment-notes: Antiproliferative activity against human 786-0 cells assessed as cell growth inhibition at 10 uM incubated for 48 hrs by SRB assay relative to control
- Format: functional
- test-context: read-out: GI
Catalogue of inhibition of growth at 10 µM values
measured-quantity: inhibition of growth at 10 µM (%)

structure_smiles_string=Cc1nc2c(cnn2-c2ccccc2)c(=O)n1-c1ccc(N2C(=O)c3ccccc3C2=O)cc1 assay_system=786-0 measured_quantity="inhibition of growth at 10 µM" comparator=< test_value=15
structure_smiles_string=Cc1nc2c(cnn2-c2ccccc2)c(=O)n1-c1ccc(N)cc1 assay_system=786-0 measured_quantity="inhibition of growth at 10 µM" comparator=< test_value=15
structure_smiles_string=Cc1nc2c(cnn2-c2ccccc2)c(=O)n1-c1ccc(NC(=O)c2ccc([N+](=O)[O-])cc2)cc1 assay_system=786-0 measured_quantity="inhibition of growth at 10 µM" comparator== test_value=16.3
structure_smiles_string=Cc1nc2c(cnn2-c2ccccc2)c(=O)n1-c1ccc(NC(=O)c2ccc(Cl)cc2)cc1 assay_system=786-0 measured_quantity="inhibition of growth at 10 µM" comparator== test_value=20.3
structure_smiles_string=Cc1nc2c(cnn2-c2ccccc2)c(=O)n1-c1ccc(/N=C2\C(=O)Nc3ccccc32)cc1 assay_system=786-0 measured_quantity="inhibition of growth at 10 µM" comparator=< test_value=15
structure_smiles_string=COc1ccc(/C=C/C(=O)c2ccc(-n3c(C)nc4c(cnn4-c4ccccc4)c3=O)cc2)cc1 assay_system=786-0 measured_quantity="inhibition of growth at 10 µM" comparator== test_value=15.4
structure_smiles_string=Cc1ccc(C(=O)Nc2ccc(-n3c(C)nc4c(cnn4-c4ccccc4)c3=O)cc2)cc1 assay_system=786-0 measured_quantity="inhibition of growth at 10 µM" comparator=< test_value=15
structure_smiles_string=Cc1nc2c(cnn2-c2ccccc2)c(=O)n1-c1ccc(N2C(=O)C=CC2=O)cc1 assay_system=786-0 measured_quantity="inhibition of growth at 10 µM" comparator=< test_value=15
structure_smiles_string=Cc1nc2c(cnn2-c2ccccc2)c(=O)n1-c1ccc(NC(=O)c2ccccc2)cc1 assay_system=786-0 measured_quantity="inhibition of growth at 10 µM" comparator== test_value=20.4
structure_smiles_string=CC(=O)Nc1ccc(-n2c(C)nc3c(cnn3-c3ccccc3)c2=O)cc1 assay_system=786-0 measured_quantity="inhibition of growth at 10 µM" comparator=< test_value=15
structure_smiles_string=Cc1nc2c(cnn2-c2ccccc2)c(=O)n1-c1ccc(NC(=O)c2ccc(F)cc2)cc1 assay_system=786-0 measured_quantity="inhibition of growth at 10 µM" comparator== test_value=17.5
structure_smiles_string=Cc1nc2c(cnn2-c2ccccc2)c(=O)n1-c1ccc(NC(=O)c2ccco2)cc1 assay_system=786-0 measured_quantity="inhibition of growth at 10 µM" comparator=< test_value=15
